Test system: 786-0 renal
Experiment: NCI-60 one-dose screen, 48 h
Conditions: 10 µM unless noted
About 83,000 compounds went through this panel and 20% of them were active in at least one assay; those are over-represented in the sample as a whole. Activity calls are given as the source filed them. How the source made its calls: active means growth percent below 10; inactive means the rest.
Outcome codes: active, inactive

COMPOUND	GROUP_LABEL
NS(=O)(=O)Oc1ccc2nc(Nc3ccc(F)c(F)c3)ccc2c1	inactive
CNC(=O)c1cc(Oc2ccc3nc(NC(=O)c4ccc(CN5CCCN(C)CC5)c(C(F)(F)F)c4)sc3c2)ccn1	active
O=C(/C=C1\C=CN(CCCCO)c2ccccc21)n1ccc2ccccc21	inactive
COc1ccc(NC(=O)[C@H](C)NC(=O)OC(C)(C)C)cc1C(=O)Nc1cccc(-c2cc(=O)c3c(OC)c(OC)c(OC)cc3o2)c1	active
CS(=O)(=O)c1ccc2c(c1)c1c(n2C(=O)c2ccc(Cl)cc2)CCCC1	inactive
CC(=O)NC(C)(C)C(=O)N[C@@H](C)C(=O)NC(C)(C)C(=O)N[C@@H](C)C(=O)NC(C)(C)C(=O)N[C@@H](C)C(=O)N[C@@H](CCC(N)=O)C(=O)NC(C)(C)C(=O)N[C@H](C(=O)NC(C)(C)C(=O)NCC(=O)N[C@@H](CC(C)C)C(=O)NC(C)(C)C(=O)N1CCC[C@H]1C(=O)N[C@H](C(=O)NC(C)(C)C(=O)NC(C)(C)C(=O)N[C@@H](CCC(N)=O)C(=O)N[C@@H](CCC(N)=O)C(=O)N[C@H](CO)CC1CCCCC1)C(C)C)C(C)C	inactive
CCC(CC)N1C(=O)/C(=c2\sc3n(c2=O)C2C(NN=3)N(CC)C(=O)N2CC)c2ccccc21 (stereo unspecified)	inactive
O=C(Nc1ccccc1)Nc1nc2ccc([N+](=O)[O-])cc2s1	inactive
CCOC(=O)c1c(Nc2ccccc2)nn2c(-c3ccc(Br)cc3)ccnc12	inactive
O=[N+]([O-])c1ccc(-c2nnc(SCc3ccc(O)c4ncccc34)n2-c2ccccc2)cc1	inactive
COc1ccc(N2CCN(C(=O)CSc3ccc(-c4nc5cc(C)c(C)cc5[nH]4)cn3)CC2)cc1	inactive
CN(C)C(=O)c1ccccc1-n1cnc2ccccc2c1=O	inactive
O=C1c2c(c3c4cccnc4[nH]c3c3ccc4ccccc4c23)C(=O)N1CCN1CCOCC1	inactive
O=c1oc2ccc(-c3ccc(F)cc3F)cc2c(=O)n1-c1cccc(C(F)(F)F)c1	inactive
CCN1C/C(=N\S(=O)(=O)c2ccccc2)N(CC)C1=S	inactive
COc1c([C@@H](CC(C)C)OC(C)=O)ccc2c1C(=O)OCc1cc(C)cc(O)c1O2	inactive

* * *

Reported values of growth for individual entries
Test system: HCC-2998 colon
Experiment: NCI-60 one-dose screen, 48 h (100 = growth as untreated, 0 = no growth, -100 = all killed)
Details: 10 µM unless noted
Compounds without any hit were thinned out: in the full panel of roughly 83,000, 20% have a hit.

MOLECULE	growth (%)
Cc1ccc(NC(=O)c2ccc(CN3CCN(C)CC3)c(C(F)(F)F)c2)cc1Oc1ccc(-c2[nH]nc3ncnc(N)c23)cc1	111
O=C(/C=C/c1cn(-c2ccccc2)nc1-c1ccc(Cl)cc1)c1cc2ccccc2oc1=O	102
C#C[C@]1(O)CC[C@H]2[C@@H]3CC=C4c5sc(-c6ccccn6)nc5CC[C@]4(C)[C@H]3CC[C@@]21C	92.5
COc1ccccc1/C=C/C=N/NC1=NC2C(S1)N(C)C(=O)N2c1ccccc1 (stereo not given)	19.9
COc1ccc2oc3c4[nH]c5ccccc5c4c4c(c3c2c1)C(=O)N(O)C4=O	101

* * *

Reported values of growth for individual entries
System: MCF7 breast
Experiment: NCI-60 one-dose screen, 48 h (100 = growth as untreated, 0 = no growth, -100 = all killed)
Settings: 10 µM unless noted
This is part of a sample that, as a whole, favours compounds with a hit. Of some 83,000 tested, about 20% had one in any assay.
OBSERVABLE: growth (%)

COMPOUND	READING
Cc1cc(=O)n2nc(-c3c[nH]c4ccccc34)sc2n1	73.2
COc1ccc(Cn2cc3c(c2-c2cc(OC)c(OC)c(OC)c2)CCCc2cnoc2-3)cc1	11.5
CCCCSc1nnc(-c2ccc(-c3ccc(Cl)cc3)nc2C)o1	85.8
COc1ccc(C(=O)c2c(N)c(C#N)cn2-c2cccc(OC)c2)cc1	17.5
CCN1C(=O)N(CC)C2SC(N/N=C/c3ccccc3)=NC21 (stereo not given)	18.6
O=S(=O)(NC1CC2CCC1C2)c1ccc2c(c1)C(=NO)c1cc(S(=O)(=O)NC3CC4CCC3C4)ccc1-2 (stereo not given)	25.3
O=C(NCCCNc1cc(-c2cn(-c3ccccc3)nc2-c2cccc(O)c2)ccn1)Nc1ccc(F)cc1	10.8
O=S(=O)(Nc1ccc(I)c(Cl)c1)c1ccc(-c2cnc(C3CC3)o2)cc1	17
Cc1[nH]nc2ccc(-c3nc4cnc(N5CCN(C)CC5)cn4c3Nc3ccc(F)cc3Br)cc12	15.5
NS(=O)(=O)Oc1ccc2nc(Nc3ccc(F)c(F)c3)ccc2c1	93.2

* * *

Tested on: SK-MEL-2 melanoma
Test: NCI-60 one-dose screen, 48 h (100 = growth as untreated, 0 = no growth, -100 = all killed)
Conditions: 10 µM unless noted
The panel holds about 83,000 compounds, 20% with a hit somewhere; the sample as a whole holds those more often.
Sorting guide: entries reporting growth beneath 30% go in the True pile, the rest go in the False pile.

MOLECULE	TARGET_UNDER_TEST	GROUP_LABEL
Clc1ccc(-c2csc(N/N=C/c3nc4ccccc4n3C3CC3)n2)cc1	SK-MEL-2 melanoma	False
CC[C@H](C)[C@H]1NC(=O)[C@@H]([C@H](O)C(C)C)NC(=O)[C@@H](C)N(C)C(=O)[C@H](C)N(C)C(=O)[C@H](CC(C)C)NC(=O)[C@H](CC(C)C)N(C)C(=O)[C@H](C)N(C)C1=O	SK-MEL-2 melanoma	True
Oc1ccc(CSc2nnc(-c3ccc(Oc4ccccc4)cc3)o2)c2cccnc12	SK-MEL-2 melanoma	False
O=C(/C=C1\C=CN(CCCCCCF)c2ccccc21)n1ccc2ccccc21	SK-MEL-2 melanoma	False
C#CCOc1ccc(C(Nc2ccc(Cl)cc2)c2nnnn2C2CCCCC2)cc1 (stereo not given)	SK-MEL-2 melanoma	False
CC1(C)CC[C@]2(C(=O)N3CCCNCC3)CC[C@]3(C)C(=CC[C@@H]4[C@@]5(C)CCC(=O)C(C)(C)[C@@H]5CC[C@]43C)[C@H]2C1	SK-MEL-2 melanoma	False
O=C(Nc1cccc(Cl)c1)Nc1nc2ccc([N+](=O)[O-])cc2s1	SK-MEL-2 melanoma	True
CCC(C)[C@H]1OC(=O)[C@H](C(C)C)N(C)C(=O)[C@@H](C(C)C)OC(=O)[C@H](C(C)C)N(C)C(=O)[C@@H](C(C)CC)OC(=O)[C@H](C(C)C)N(C)C1=O (stereo not given in full)	SK-MEL-2 melanoma	True
Oc1ccc(CSc2nnc(-c3ccncc3)o2)c2cccnc12	SK-MEL-2 melanoma	True
Cn1c2ccccc2c2c3c(c4c5ccc(Br)cc5oc4c21)C(=O)N(O)C3=O	SK-MEL-2 melanoma	False
COc1cc(/C=C/C(=O)c2ccc(NC(=O)COc3cccc4cccnc34)cc2)cc(OC)c1OC	SK-MEL-2 melanoma	False
Cc1ccc(NC(=O)c2ccc(CN3CCN(C)CC3)c(I)c2)cc1Oc1ccc(-c2[nH]nc3ncnc(N)c23)cc1	SK-MEL-2 melanoma	False
COc1ccc(Cn2cc3c(c2-c2ccccc2)CCCc2cnoc2-3)cc1[N+](=O)[O-]	SK-MEL-2 melanoma	False
O=C1CC2(CCOCC2)Oc2ncccc21	SK-MEL-2 melanoma	False
O=C(CCCCCCN1CC(=O)N2[C@@H](c3ccc(Cl)c(F)c3)c3[nH]c4ccccc4c3C[C@H]2C1=O)NO	SK-MEL-2 melanoma	False
Nc1nc(N)c2c(n1)NC(c1ccc(Cl)cc1)CC(c1ccc(Nc3nc(NCCO)nc(Nc4ccc(Cl)cc4)n3)cc1)=N2 (stereo not given)	SK-MEL-2 melanoma	False
N/C(=N\OC(=O)CSc1nc2ccccc2s1)c1ccc(Cl)cc1	SK-MEL-2 melanoma	False
c1ccc(-c2c(-c3ccccc3)[n+](Cc3ccc4ccccc4c3)c(-c3ccccc3)n2Cc2ccc3ccccc3c2)cc1	SK-MEL-2 melanoma	True
C#C[C@]1(O)CC[C@H]2[C@@H]3CC=C4c5sc(Nc6cc(OC)ccc6OC)nc5CC[C@]4(C)[C@H]3CC[C@@]21C	SK-MEL-2 melanoma	False
O=C1Nc2ccc(Br)cc2/C1=N\c1nnc(-c2ccc(Cl)cc2)o1	SK-MEL-2 melanoma	False
O=C(N/N=C\c1ccc(Cl)cc1)c1ccc2nc(-c3ccc(Br)cc3)[nH]c2c1	SK-MEL-2 melanoma	False
CC(C)=CCc1c2c(c(O)c3c1O[C@]14C(=C[C@@H]5C[C@H]1C(C)(C)O[C@@]4(C/C=C(/C)C(=O)O)C5=O)C3=O)CC(O)C(C)(C)O2 (stereo not given in full)	SK-MEL-2 melanoma	True
CC(C)=CCC[C@](C)(O)[C@H]1CC[C@]2(C)[C@@H]1CC[C@@H]1[C@@]3(C)CCC(NC(=O)c4ccccc4C(=O)O)C(C)(C)[C@@H]3CC[C@]12C (stereo not given in full)	SK-MEL-2 melanoma	False
CCN1C/C(=N\S(=O)(=O)c2ccccc2)N(CC)C1=S	SK-MEL-2 melanoma	False
COc1ccc(/C=C/C(=O)c2nnn(-c3ccc(C(=O)O)cc3)c2C)cc1OC	SK-MEL-2 melanoma	False
C#C[C@]1(O)CC[C@H]2[C@@H]3CC=C4c5sc(Nc6ccncc6)nc5CC[C@]4(C)[C@H]3CC[C@@]21C	SK-MEL-2 melanoma	True
O=c1oc2ccc(-c3ccc(F)cc3F)cc2c(=O)n1-c1ccc(F)c(F)c1	SK-MEL-2 melanoma	True
C#C[C@]1(O)CC[C@H]2[C@@H]3CC=C4c5sc(Nc6cccc(Cl)n6)nc5CC[C@]4(C)[C@H]3CC[C@@]21C	SK-MEL-2 melanoma	True
CN(C)C(=O)C1=NC(CO)C(=O)N(c2ccc(Cl)cc2)N1 (stereo not given)	SK-MEL-2 melanoma	False
CC(=O)Nc1ccc(C)c(Nc2cc(-c3ccc(-n4cccn4)cc3)[nH]n2)c1	SK-MEL-2 melanoma	True
CCN1C(=O)N(CC)C2SC(N/N=C/c3cccs3)=NC21 (stereo not given)	SK-MEL-2 melanoma	True
COc1cc(/C=C/C(=O)c2ccc(N3CCN(C)CC3)cc2)ccc1F	SK-MEL-2 melanoma	False
CC1COc2c(N3CCN(C)CC3)c(F)cc3c(=O)c(C(=O)N/N=C/c4cc[nH]c4)cn1c23 (stereo not given)	SK-MEL-2 melanoma	False
CN1CCN(c2ccc3c(c2)nc(NNC(=O)c2ccncn2)c2cccn23)CC1	SK-MEL-2 melanoma	False
